target: 5-hydroxytryptamine receptor 2C (Rattus norvegicus, UniProt P08909); assay: Binding affinity against 5-hydroxytryptamine 2C receptor in rat choroid plexus using [3H]N-methyl-mesulergine
Sequence (P08909 whole entry): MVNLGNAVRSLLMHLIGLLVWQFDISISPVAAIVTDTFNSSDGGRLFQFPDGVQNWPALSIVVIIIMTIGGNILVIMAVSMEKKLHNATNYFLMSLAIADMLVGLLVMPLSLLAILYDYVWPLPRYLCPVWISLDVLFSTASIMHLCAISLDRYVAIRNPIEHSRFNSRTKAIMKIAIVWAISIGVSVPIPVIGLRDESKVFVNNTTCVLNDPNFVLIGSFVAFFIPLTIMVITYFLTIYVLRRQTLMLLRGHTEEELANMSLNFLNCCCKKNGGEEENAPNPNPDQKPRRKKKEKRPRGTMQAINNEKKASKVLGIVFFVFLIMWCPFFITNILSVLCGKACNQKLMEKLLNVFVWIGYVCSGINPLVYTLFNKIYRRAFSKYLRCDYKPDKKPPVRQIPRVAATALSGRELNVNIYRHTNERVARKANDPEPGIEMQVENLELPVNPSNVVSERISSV
pKi: −log10 of the molar value.
assay_readout: pKi

INSERT INTO assay_data (line_notation, assay_readout, value_reported) VALUES
  ('COc1ccccc1N1CCN(CCCCc2ccc3c(c2)OCC(=O)N3CCN2CCC(=C(c3ccc(F)cc3)c3ccc(F)cc3)CC2)CC1', 'pKi', 6.60),
  ('COc1ccccc1N1CCN(CCCCc2ccc3c(c2)sc(=O)n3CCN2CCC(=C(c3ccc(F)cc3)c3ccc(F)cc3)CC2)CC1', 'pKi', 6.96),
  ('COc1ccccc1N1CCN(CCCCc2ccc3c(c2)oc(=O)n3CCN2CCC(=C(c3ccc(F)cc3)c3ccc(F)cc3)CC2)CC1', 'pKi', 6.34);

[P] COc1ccccc1N1CCN(CCCc2ccc3c(c2)sc(=O)n3CCN2CCC(C(=O)c3ccc(F)cc3)CC2)CC1
[Q] COc1ccccc1N1CCN(CCCCc2ccc3c(c2)OCC(=O)N3CCN2CCC(C(=O)c3ccc(F)cc3)CC2)CC1
Select one: P or Q . Criterion: greater recorded pKi. Give the label of your selection.
Q
(Q: 7.52, P: 7.15)
